# credit: patent US20140315933A1

# EXPERIMENTAL_TARGET: URAT-1 transporter (Homo sapiens, UniProt Q96S37)
# Construct: expressed in transfected cells
# Sequence (Q96S37 with tags, fused parts or gaps): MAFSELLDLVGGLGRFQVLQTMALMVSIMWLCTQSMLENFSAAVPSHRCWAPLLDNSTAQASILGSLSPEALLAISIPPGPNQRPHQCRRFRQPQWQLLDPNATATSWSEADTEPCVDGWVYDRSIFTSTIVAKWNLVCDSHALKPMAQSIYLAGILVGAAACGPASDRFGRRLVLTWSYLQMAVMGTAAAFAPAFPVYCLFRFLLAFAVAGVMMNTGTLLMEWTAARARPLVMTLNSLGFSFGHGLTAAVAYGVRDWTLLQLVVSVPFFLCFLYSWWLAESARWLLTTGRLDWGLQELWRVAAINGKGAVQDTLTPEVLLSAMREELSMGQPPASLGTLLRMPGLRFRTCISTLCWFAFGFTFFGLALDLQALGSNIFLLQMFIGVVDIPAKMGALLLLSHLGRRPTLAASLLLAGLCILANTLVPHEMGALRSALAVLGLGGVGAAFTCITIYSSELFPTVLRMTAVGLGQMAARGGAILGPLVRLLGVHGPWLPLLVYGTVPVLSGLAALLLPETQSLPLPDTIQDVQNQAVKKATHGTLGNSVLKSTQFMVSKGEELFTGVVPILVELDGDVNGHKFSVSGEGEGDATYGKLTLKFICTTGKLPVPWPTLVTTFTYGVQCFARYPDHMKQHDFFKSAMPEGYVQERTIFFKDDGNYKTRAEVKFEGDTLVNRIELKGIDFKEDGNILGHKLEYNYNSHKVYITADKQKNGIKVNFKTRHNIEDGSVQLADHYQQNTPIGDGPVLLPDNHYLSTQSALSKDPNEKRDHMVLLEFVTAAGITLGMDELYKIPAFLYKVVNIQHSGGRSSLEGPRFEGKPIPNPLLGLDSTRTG
# ASSAY_OVERVIEW: URAT-1 inhibitor activity: [14C]-uric acid uptake into CHO-URAT1(L)GFP#8 (CHO#8) cells, scintillation proximity
# Assay type: cell-based
Where a name gives a salt, the structure may show the parent alone.
I'd appreciate it if you could supply IC50 values for the items below.

Any idea what IC50 came out for COc1ccc(Cl)cc1Oc1ccc(S(=O)(=O)Nc2ncns2)cc1C#N on URAT-1 transporter (Homo sapiens, UniProt Q96S37)?
> 5.76 µM

Any idea what IC50 came out for CC(C)c1cccc(Oc2ccc(S(=O)(=O)Nc3ncc(F)s3)cc2F)c1 on URAT-1 transporter (Homo sapiens, UniProt Q96S37)?
> 6.34 µM

Any idea what IC50 came out for N#Cc1ccc(OC(F)F)c(Oc2ccc(S(=O)(=O)Nc3ncns3)cc2C#N)c1 on URAT-1 transporter (Homo sapiens, UniProt Q96S37)?
> 10 µM

Any idea what IC50 came out for N#Cc1cc(Oc2ccc(S(=O)(=O)Nc3cscn3)c(Cl)c2)ccc1F on URAT-1 transporter (Homo sapiens, UniProt Q96S37)?
> 10 µM

Any idea what IC50 came out for Cc1ccncc1Oc1ccc(S(=O)(=O)Nc2ncns2)cc1C#N [compound 272, trifluoroacetic acid salt] on URAT-1 transporter (Homo sapiens, UniProt Q96S37)?
> 4.32 µM
